# GI50 per entry
# Tested on: OVCAR-8
# METHOD NOTES: NCI tumour cell line growth inhibition, 48 h
The source made the active and inactive calls. Rule as the data show it: active = GI50 up to about 1.1 µM and inactive = higher.

O=C(N/N=C(/c1nc2ccc([N+](=O)[O-])cc2[nH]c1=O)C(O)c1ccc([N+](=O)[O-])cc1)c1ccncc1 (stereo not given) :: > 100 µM (inactive)
CCCCCCCCCC1CC(=O)OC23CCCC(=O)C12O3 (stereo not given) :: 52.1 µM (inactive)
CSc1nc(C)c2c(n1)N(c1ccc(Cl)cc1)CC2 :: > 100 µM (inactive)
COC(=O)C1CC/C(=N/C2c3ccccc3-c3ccccc32)N1 (stereo not given) :: > 100 µM (inactive)

Continue with the next compound.
Incoming: Item under review: `COc1ccccc1NC(=O)CC(=O)n1nc(C)c(/N=N/c2ccccc2F)c1C` . Reported GI50?
Outgoing: 44.6 µM (inactive)

---

# Tested on: MOLT-4
# METHOD NOTES: NCI tumour cell line growth inhibition, 48 h
The source made the active and inactive calls. No stated cut-off is given here; in the data, active = GI50 up to about 1.1 µM and inactive = higher.
# GI50 per entry

Record excerpt, results attached:
CC(C)OP(=O)(OC(C)C)c1c(N)n[nH]c1Nc1ccccc1 :: > 100 µM (inactive)
Cc1ccc([N+](=O)[O-])cc1S(=O)(=O)Nc1ccc(C2=NN(S(=O)(=O)c3cc([N+](=O)[O-])ccc3C)C(c3ccccc3O)C2)cc1 (stereo unspecified) :: 26.7 µM (inactive)
COc1ccc(/C=C/C(=O)c2sc(-n3nc(-c4ccccc4)cc3-c3ccccc3)nc2C)cc1OC :: 20.3 µM (inactive)
O=C1OC2C=CC1C1(CCOC1=O)C2 (stereo unspecified) :: > 100 µM (inactive)
CCOC(=O)C1C(=O)c2cccc(OC)c2C2COC(=O)N12 (stereo unspecified) :: > 100 µM (inactive)
COC(=O)/C(=N\NC(C)(C)C)C(C(=O)C(=O)Nc1cc(C)ccc1C)c1nc2ccccc2nc1O (stereo unspecified) :: > 100 µM (inactive)
OC1(c2ccc3ccccc3c2)c2ccc3ccccc3c2C2=NCCN21 (stereo unspecified) :: > 100 µM (inactive)
O=C(CCC(C(=O)OCc1ccccc1)C(=O)OCc1ccccc1)Nc1ccc(OCc2ccccc2)cc1 :: 55.6 µM (inactive)
CSc1nc2c3ccccc3ccn2c1C(=O)N/N=C/c1ccccc1 :: > 100 µM (inactive)
Cc1noc(-c2ccc(C(=O)O)[nH]2)c1Br :: > 100 µM (inactive)

Incoming: Item under review: C[C@]12CCC(=O)C=C1CC[C@@H]1[C@@H]2[C@@H](O)C[C@@]2(C)[C@H]1CC[C@]2(O)C(=O)COC(=O)CCC1CCCC1 [HYDROCORTISONE CYPIONATE] . Reported GI50?
Outgoing: > 100 µM (inactive)

Incoming: Request: COC(=O)C1=CO[C@@H](OC2CC(CO)C(O)C(O)C2O)[C@@H]2[C@@H](C)[C@@H](OC(=O)/C=C/c3ccccc3)[C@@H](O)[C@H]12.COC(=O)C1=CO[C@@H](OC2CC(CO)C(O)C(O)C2O)[C@@H]2[C@@H](C)[C@@H](OC(=O)c3ccccc3)[C@@H](O)[C@H]12 (stereo partly specified)
Outgoing: > 100 µM (inactive)

Incoming: Request: `COC(=O)C(=Cc1cc(OC)c(OC)c(OC)c1-c1cc2c(cc1C(C)=O)OCO2)C(=O)OC`
Outgoing: 52.2 µM (inactive)

Incoming: Request: `Cc1ccc(C(=N)c2ccccc2Cc2cccc3ccccc23)c2ccccc12`
Outgoing: 58.7 µM (inactive)

Incoming: Request: `Cc1ccc(/N=N/C(=NNC(=O)c2ccc(C)cc2)c2ccc(N(C)C)cc2)cc1`
Outgoing: 33 µM (inactive)

Incoming: Request: NC1=CN2c3ccccc3N(CC(=O)O)C2C=C1 (stereo unspecified)
Outgoing: > 100 µM (inactive)

---

# GI50 per entry
# System: LXFL 529
# METHOD NOTES: NCI tumour cell line growth inhibition, 48 h
Active and inactive are the calls of the source. Rule as the data show it: active = GI50 up to about 1.1 µM and inactive = higher.

Incoming: Item under review: CCOc1ccccc1NC(=O)C(=O)C(C(=O)c1ccc2ccccc2c1)C1OC(=O)c2ccccc21 (stereo not drawn) . Reported GI50?
Outgoing: 5.21 µM (inactive)

Incoming: Request: `NC(=O)N/N=C/C(/C=N/NC(N)=O)[N+](=O)[O-]`
Outgoing: > 100 µM (inactive)

Incoming: Request: CCCCCCCCCCCCCC(=O)OCC1OC(OC)C(NC(=O)N(CCCl)N=O)C(O)C1O (stereo not drawn)
Outgoing: 16.3 µM (inactive)

Incoming: Request: COC(=O)C1CC/C(=N/C2c3ccccc3-c3ccccc32)N1 (stereo not drawn)
Outgoing: > 100 µM (inactive)

---

# System: SNB-75
# METHOD NOTES: NCI tumour cell line growth inhibition, 48 h
Active and inactive are the calls of the source. Cut-off read from the data, not from the text of the source: active = GI50 up to about 1.1 µM and inactive = higher.
Output constraint: value belongs to true (active), false (inactive)

Look over these answered cases.
O=C1c2c(O)cccc2C(C(=O)CCCC(=O)C2c3cccc(O)c3C(=O)c3c(O)cccc32)c2cccc(O)c21 :: true
COc1ccccc1OCC(COC(=O)Nc1ccc(C)cc1)OC(=O)Nc1ccc(C)cc1 (configuration not stated) :: false
NC(=O)C(N)Cc1ccc(O)cn1 (configuration not stated) :: false
NC(CSC(c1ccccc1)(c1ccccc1)c1ccccc1)C(=O)O (configuration not stated) :: false
COc1cc2cc3c4c(cc(OC)c(OC)c4c2cc1OC)CCN3C(=O)OCCBr :: false
C[C@H](O)C1CC(Cn2nnc3c(N)ncnc32)C1(C)C (some centres not stated) :: false
COc1cc2c(cc1OC)C(O)[C@H](Br)C(C)(C)O2 (some centres not stated) :: false
CN1CCC23c4ccccc4NC1C21CCN(C)C3Nc2ccccc21 :: false

Incoming: Fill in: this test's call for `Cn1cnnc1Sc1c([N+](=O)[O-])ncn1C` is ___
Outgoing: false

Incoming: Request: `COc1nc(C#CCCCC#N)nc(OC)n1`
Outgoing: false

Incoming: Request: CC(=O)Oc1cc2c(cc1OC(C)=O)OCC(c1ccc(C)cc1)C2 (configuration not stated)
Outgoing: false

Incoming: Request: `COc1ccc(OC)c(CSc2ccc(OC)c(OC)c2)c1`
Outgoing: false

---

# Tested on: Malme-3M
# METHOD NOTES: NCI tumour cell line growth inhibition, 48 h
Active and inactive are the calls of the source. Cut-off read from the data, not from the text of the source: active = GI50 up to about 1.1 µM and inactive = higher.
# GI50 per entry

Incoming: Item under review: `COc1cc(/C=N/n2c(Cc3ccc(Cl)cc3)n[nH]c2=O)cc(OC)c1OC` . Reported GI50?
Outgoing: > 100 µM (inactive)

Incoming: Request: `CSc1nc2c3ccccc3ccn2c1C(=O)N/N=C/c1ccccc1`
Outgoing: 47.6 µM (inactive)

Incoming: Request: `CC1(c2ccc[n+](Cc3ccccc3)c2)OCCO1`
Outgoing: > 100 µM (inactive)

Incoming: Request: `COc1ccc(/C=N/n2c(C)n[nH]c2=O)cc1`
Outgoing: > 100 µM (inactive)

Incoming: Request: `COc1cc(O)c(C(C)=O)c(O)c1`
Outgoing: > 100 µM (inactive)

Incoming: Request: `N#CCCN(CCC#N)c1ccc(/C=C(/NC(=O)c2cc([N+](=O)[O-])ccc2Cl)C(=O)N=[N+]=[N-])cc1`
Outgoing: > 100 µM (inactive)

Incoming: Request: `O=C(CCC(C(=O)OCc1ccccc1)C(=O)OCc1ccccc1)Nc1ccc(OCc2ccccc2)cc1`
Outgoing: > 100 µM (inactive)

Incoming: Request: `O=C(CCSC1=NCCCN1)c1ccc(F)cc1`
Outgoing: 7.26 µM (inactive)

Incoming: Request: `O=C1C=CC=C/C1=C1\N=C(c2ccccc2OCC(=O)c2ccc(Br)cc2)SS1`
Outgoing: > 100 µM (inactive)

---

# Test system: RPMI-8226
# METHOD NOTES: NCI tumour cell line growth inhibition, 48 h
Active and inactive are the calls of the source. Cut-off read from the data, not from the text of the source: active = GI50 up to about 1.1 µM and inactive = higher.
MEASURED METRIC: GI50

CC(C)NCC(O)c1ccc(OCc2ccccc2)c(OCc2ccccc2)c1-c1ccccc1 (stereo not given) :: 2.51 µM (inactive)
O=Cc1c2c(cc3c1CC1(C3)Cc3cc4c(c(C=O)c3C1)CCCC4)CCCC2 :: 16.8 µM (inactive)
O=C1CSC(c2cccc(Cl)c2)N1c1ccc(-n2c(-c3ccccc3)nc3ccccc3c2=O)cc1 (stereo not given) :: 52.4 µM (inactive)
O=C(COC(c1ccc(F)cc1)c1ccc(F)cc1)N1CCN(CCCc2ccccc2)CC1 :: 3.39 µM (inactive)
O=c1c2cccnc2[nH]c2ccc3[nH]ncc3c12 :: > 10 µM (inactive)
NC(CSC1c2ccccc2-c2ccccc21)C(=O)O (stereo not given) :: > 100 µM (inactive)

Incoming: Item under review: `Cc1c(C(=O)OCc2ccccc2)[n+]([O-])c2ccccc2[n+]1[O-]` . Reported GI50?
Outgoing: 11.6 µM (inactive)

Incoming: Request: `CN1CCN(C(=S)N(C(=O)c2cccs2)C2CCCCC2)CC1`
Outgoing: > 100 µM (inactive)

Incoming: Request: `O=C1C=CC=C/C1=C1\N=C(c2ccccc2OCC(=O)c2ccc(Br)cc2)SS1`
Outgoing: > 100 µM (inactive)

Incoming: Request: `O=C1CC(Cc2n[nH]c3c2CCCC3)CC(=O)N1`
Outgoing: > 100 µM (inactive)
